Where do the numbers come from? From patent US20110053865A1.

Target: T1, recombinant human IL-23 (p19/p40) (human, UniProt Q9NPF7 20-189; P29460 23-328)
T1 construct: Bought heterodimer (R&D Systems or eBioscience); biotinylated in the alpha-screens; also called hIL-23
T1 sequence (looked up) 1: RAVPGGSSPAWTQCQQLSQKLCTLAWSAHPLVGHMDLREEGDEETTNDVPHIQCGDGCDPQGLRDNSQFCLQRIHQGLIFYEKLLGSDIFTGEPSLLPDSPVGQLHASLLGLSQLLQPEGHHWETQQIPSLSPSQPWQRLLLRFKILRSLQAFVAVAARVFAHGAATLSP
T1 sequence (looked up) 2: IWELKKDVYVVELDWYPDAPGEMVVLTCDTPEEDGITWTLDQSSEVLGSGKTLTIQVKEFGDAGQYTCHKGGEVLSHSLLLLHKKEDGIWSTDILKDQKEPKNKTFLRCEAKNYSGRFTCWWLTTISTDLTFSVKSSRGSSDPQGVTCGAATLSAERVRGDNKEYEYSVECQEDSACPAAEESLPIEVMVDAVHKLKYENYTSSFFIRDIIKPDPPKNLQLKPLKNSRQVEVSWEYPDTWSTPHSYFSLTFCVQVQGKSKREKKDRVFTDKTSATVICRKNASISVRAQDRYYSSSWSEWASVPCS
Test: SPR Biacore, hIL-23 on chip
Endpoint: koff (s⁻¹)
Write the answer as a number in s⁻¹, unit excluded.

P23IL81E10 (VHH, p40+ Nanobody) VHH: EVQLVESGGGLVQAGGSLRLSCVASGRTFNTYGMGWFRQAPGKEREFVAANNWSGGATSYADSVKGRFTISRDNAKNTVFLQMNTLKPEDTAVYYCAAADRGGGWLVVRENDYDYWGQGTQVTVSS	0.00263

-- ask Please give the measured koff for this binder: P23IL-22E11 (VHH) VHH: EVQLVESGGGLVQAGGSLRLSCAASGRTFSWSAVGWFRQAPGKEREFVAAIRWSGGSPYYADSVKDRFTISRDNAKNTVYLQMNSLRPEDTAVYLCGETSLFPTSRGSHYDTWGQGTQVTVSS
-- reply 0.00023

-- ask Looking for the measured koff of P23IL 21C4 (VHH, p40+ Nanobody; c-myc, His6-tagged) VHH: EVQLVESGGGLVQAGGSLRLSCAASGRTFSGYDMGWFRQAPGKEREFVAQISRHNSNTYYADAVKGRFTISRDNAKNTVSLQMNSLKPEDTAVYYCAIGSLFPSSRERDYDYWGQGTQVTVSS , can you help?
-- reply 0.00051

-- ask For the binder shown here, P23IL3B8 (VHH, p40+ Nanobody; c-myc, His6-tagged) VHH: EVQLVESGGGLVQPGGSLRLSCAASGFTFSSSVMFWLRQAPGKGLEWLSTIKPTGSTIYPGSGKGRFTISRDNAKNTLYLQINNLKPEDTALYYCARDIGGTVRGQGTQVTVSS , give the reported koff.
-- reply 0.0035
